System: SK-MEL-5 melanoma
Experiment: NCI tumour cell line growth inhibition, 48 h
Some compounds, each annotated with its measured TGI.

{"compound": "O=C1c2ccccc2CCC1(Br)Br", "TGI": "5.87 µM"}
{"compound": "COc1ccc2c(c1)c(-c1nc(-c3cn(C)c4ncccc34)cs1)cn2CCCCN1CCOCC1", "TGI": "3.06 µM"}
{"compound": "NN/C(=N\\S(=O)(=O)c1cccc2nsnc12)Nc1ccc(Cl)cc1", "TGI": "> 100 µM"}
{"compound": "N#Cc1c(-c2ccccc2)c(C#N)c(=S)n(C2OCC(O)C(O)C2O)c1N (stereo unspecified)", "TGI": "> 100 µM"}
{"compound": "O=C(CC(=O)c1cccc([N+](=O)[O-])c1)C(=O)Nc1nc([N+](=O)[O-])cs1", "TGI": "> 100 µM"}

// query Give its TGI value. Item: O=C(NCCCCCCNC(=O)NC1OCC(O)C(O)C1O)NC1OCC(O)C(O)C1O (stereo unspecified)
// result > 100 µM

// query Same read-out for Cc1ccc2nc(CC(=O)c3ccc4ccccc4c3)c(=O)[nH]c2c1 ?
// result > 100 µM

###

Listed molecules paired with reported TGI
Test system: SNB-75 CNS
Assay: NCI tumour cell line growth inhibition, 48 h
Where a SMILES comes first, the peptide text is derived from it. [ ]: non-standard residue; d: D form. The star is where a group is joined. ξ: configuration not given here. ξW = NC(Cc1c[nH]c2ccccc12)C(=O)O; X30 = O=C(O)[C@H]1CCC[C@H]1N*; ξF = NC(Cc1ccccc1)C(=O)O; Boc = CC(C)(C)OC(=O)*; ξK = NCCCCC(N)C(=O)O; ξT = CC(O)C(N)C(=O)O; tBu = CC(C)(C)*

Examples with their reported TGI follow.
{"molecule": "Cc1cc2c(=O)c3ccccc3oc2c(C#N)c1C", "TGI": "> 100 µM"}
{"molecule": "CS(=O)(=O)c1ccc(-c2[nH]c3ccc(F)cc3c2/C=N/NC(N)=S)cc1", "TGI": "> 100 µM"}
{"molecule": "CNC(=O)OCc1cc2ccncc2c2c1[nH]c1ccccc12", "TGI": "> 80.3 µM"}

From here, focus on the item given below.
// query Which measured TGI value corresponds to CC(OC(C)(C)C)C(NC(=O)C(CCCCNC(=O)OC(C)(C)C)NC(=O)C(Cc1c[nH]c2ccccc12)NC(=O)C(N)Cc1ccccc1)C(=O)NC(Cc1ccccc1)C(=O)N[C@@H]1CCC[C@@H]1C(=O)O (some centres undefined) (H-[ξF][ξW][ξK](Boc)[ξT](tBu)[ξF]-X30) ?
// result > 100 µM

###

Tested on: SNB-19 CNS
Assay: NCI tumour cell line growth inhibition, 48 h
Where a SMILES comes first, the peptide text is derived from it. [ ]: non-standard residue; d: D form. The star is where a group is joined. ξ: configuration not given here. ξW = NC(Cc1c[nH]c2ccccc12)C(=O)O; X30 = O=C(O)[C@H]1CCC[C@H]1N*; ξF = NC(Cc1ccccc1)C(=O)O; Boc = CC(C)(C)OC(=O)*; ξK = NCCCCC(N)C(=O)O; ξT = CC(O)C(N)C(=O)O; tBu = CC(C)(C)*
Listing of entries alongside the reported TGI.

{"molecule": "CCc1cccc(CC)c1NC(=O)c1ccn2c1CCc1cnc(Nc3ccc(N4CCN(C)CC4)cc3OC)nc1-2", "test-value": "15.2 µM"}
{"molecule": "COc1cc2c3c(c1OCc1ccccc1)NCCC3NCC2 (stereo not drawn)", "test-value": "> 100 µM"}
{"molecule": "CC(OC(C)(C)C)C(NC(=O)C(CCCCNC(=O)OC(C)(C)C)NC(=O)C(Cc1c[nH]c2ccccc12)NC(=O)C(N)Cc1ccccc1)C(=O)NC(Cc1ccccc1)C(=O)N[C@@H]1CCC[C@@H]1C(=O)O (stereo partly drawn) (H-[ξF][ξW][ξK](Boc)[ξT](tBu)[ξF]-X30)", "test-value": "51.2 µM"}
{"molecule": "O=C(OC(CNc1c(C(=O)c2ccccc2)c(=O)n(Cc2ccccc2)c(=O)n1Cc1ccccc1)CN1CCCCC1)c1ccccc1 (stereo not drawn)", "test-value": "83.5 µM"}
{"molecule": "CN1CCc2cc(O)c3cc2C1Cc1ccc(cc1)Oc1cc(ccc1O)CC1c2c(cc4c(c2O3)OCO4)CCN1C (stereo not drawn)", "test-value": "> 100 µM"}

Continue with the molecule presented below.
// query Quick check: TGI on SNB-19 CNS, item NC(N)=NCCCC(NCc1c2ccccc2[n+]([O-])c2ccccc12)C(=O)O (stereo not drawn) ?
// result > 100 µM

###

Test system: HS 578T breast
Assay: NCI tumour cell line growth inhibition, 48 h
# Lookup of reported TGI keyed by entry

Please review the entries below; each comes with its answer.
{"molecule": "Cc1cccc2c1NC(=O)C2(c1ccc(O)cc1)c1ccc(O)cc1", "test-value": "< 0.0192 µM"}
{"molecule": "COc1cc(S(=O)(=O)Nc2ccc(-c3csc(/N=C\\C=C\\c4ccccc4)n3)cc2)ccc1Cl", "test-value": "> 100 µM"}
{"molecule": "O=C1c2cscc2C(=O)c2c(OCc3ccccc3)ccc(OCc3ccccc3)c21", "test-value": "> 100 µM"}
{"molecule": "CN1CC(S(=O)(=O)c2ccccc2)CC(S(=O)(=O)c2ccccc2)C1c1ccccc1 (configuration not stated)", "test-value": "84.1 µM"}
{"molecule": "COc1ccc2[nH]cc(CN3CCC(CO)(c4ccccc4)CC3)c2c1", "test-value": "70.9 µM"}

// query Fill blank: measured TGI of the molecule O=C1C(Cl)C(c2cccc(Br)c2)N1c1c(O)c(Cl)cc(Br)c1Cl (configuration not stated) is ____.
// result 24 µM

// query // repeat for O=C1C=C(NCCc2cc(Cl)c(O)c(Cl)c2)C(=O)c2[nH]cnc21 and report
// result > 100 µM

// query # repeat for O=C1c2ccccc2-n2c1nc1cc(Cl)ccc1c2=O
// result > 100 µM

// query Let us now turn to COc1ccc(C(=O)C(CC2C(=O)CC(C)(C)C(C(=O)C(=O)Nc3c(C)cccc3C)C2=O)c2ccc(OC)cc2)cc1 (configuration not stated)
// result > 100 µM

// query Entry to check: Cc1cc2c(=O)c3ccccc3oc2c(C#N)c1C
// result > 100 µM

// query How about CC1C(=O)CC[C@@]2(C)C(=O)CCCC12O (some centres not stated) ?
// result > 100 µM

// query Please give the result for O=C(Nc1ccc(Cl)cc1F)c1cc(Cl)ccc1O too.
// result 3.65 µM

###

Each entry below lists one item and its recorded TGI value.
Test system: HOP-62 NSCLC
Experiment: NCI tumour cell line growth inhibition, 48 h

Here's what some known entries look like.
{"compound": "N#Cc1nc(C2SCCCS2)oc1N", "experimental-system": "HOP-62 NSCLC", "test-value": "> 100 µM"}
{"compound": "O=C(NCCCCCCNC(=O)NC1OCC(O)C(O)C1O)NC1OCC(O)C(O)C1O (stereo unspecified)", "experimental-system": "HOP-62 NSCLC", "test-value": "> 100 µM"}
{"compound": "COc1ccc(OC)c(-c2cc(C(=O)O)c3cc4ccccc4cc3n2)c1", "experimental-system": "HOP-62 NSCLC", "test-value": "> 100 µM"}
{"compound": "CN(C)C=Nc1c(Br)cc(Br)c2nonc12", "experimental-system": "HOP-62 NSCLC", "test-value": "> 100 µM"}

// query Find the measured TGI: item O=C(OC(CNc1c(C(=O)c2ccccc2)c(=O)n(Cc2ccccc2)c(=O)n1Cc1ccccc1)CN1CCCCC1)c1ccccc1 (stereo unspecified) , target or system HOP-62 NSCLC.
// result 33.6 µM

// query What about O=C(c1ccncc1)N1CCN(C2=NS(=O)(=O)c3ccccc3N2c2ccccc2)CC1 ?
// result 32.3 µM

// query Note, next up: Cc1cn(C2CC(N=[N+]=[N-])C(CO)O2)c(=O)n(CCCCO)c1=O (stereo unspecified)
// result > 100 µM

// query Same read-out for N#Cc1nc(NC(=O)c2ccccc2)sc1N ?
// result > 10 µM

###

The molecules listed here are annotated with their TGI.
Test system: KM12 colon
Experiment: NCI tumour cell line growth inhibition, 48 h

Below: 5 molecules and their reported TGI.
{"molecule": "CC(=O)O[C@H]1CC[C@@]2(C)C(=CC[C@H]3[C@@H]4C/C(=C\\c5ccncc5)[C@H](OC(C)=O)[C@@]4(C)CC[C@@H]32)C1", "TGI": "16.3 µM"}
{"molecule": "CNC(=O)c1c(NC(=O)c2ccc(C(C)C)cc2)sc2c1CCC(=O)C2", "TGI": "1.69 µM"}
{"molecule": "Cc1ccc(Nc2cc(=O)[nH]c(=O)[nH]2)cc1CS", "TGI": "> 100 µM"}
{"molecule": "c1ccc(C2=NN[C@H](c3cn(-c4ccccc4)nc3-c3ccccc3)C2)cc1", "TGI": "> 100 µM"}
{"molecule": "CCNC(=O)c1ccc2c(c1)nc(-c1ccc(Cl)cc1)n2-c1cc(C(C)(C)C)[nH]n1", "TGI": "36.8 µM"}

// query Returns the measured TGI for the input molecule. Input: CCCCC1=CC1(C#N)[N+](=O)[O-] (stereo unspecified)
// result > 100 µM

// query Same question for O=c1c2ccccc2n2n1Cc1ccccc1C2 please.
// result > 100 µM

// query What do you get for Cc1cc(=O)[nH]c(NN2C(Cl)C(=O)C2c2c(O)ccc3ccccc23)n1 (stereo unspecified) ?
// result 61.5 µM

// query Quick one: Oc1c2c(c3c4c1N=CC=4CCN=3)C1(C=C(Br)C(O)C(Br)=C1)CCN2 (stereo unspecified)
// result 6.16 µM

// query What do we get for CCc1cccc(CC)c1NC(=O)c1ccn2c1CCc1cnc(Nc3ccc(N4CCN(C)CC4)cc3OC)nc1-2 ?
// result 14.8 µM

// query Next molecule up: CC(=O)[C@]1(C)[C@H](C)O[C@](C)(CO)[C@H]1O[Si](C)(C)c1ccccc1
// result > 100 µM

// query Entry to check: N#Cc1c(-c2ccccc2)c(C#N)c(=S)n(C2OCC(O)C(O)C2O)c1N (stereo unspecified)
// result > 100 µM

// query Try the molecule O=C1CCCC(=O)C1C(=O)c1ccc(C(F)(F)F)cc1[N+](=O)[O-]
// result > 100 µM

// query Note, next up: CCCN(CCC)c1ccc(/C=N/NC(=O)c2cccnc2)cc1
// result > 100 µM

// query # iterate: Cc1ccc(S(=O)(=O)c2ccsc2NC(=O)c2ccccc2)cc1
// result > 100 µM

// query And the next one, CSc1n[nH]c2n[nH]c(C)c12 ?
// result > 100 µM

// query # repeat for O=[N+]([O-])c1cc([N+](=O)[O-])c(C(Cl)C(Cl)c2ccccc2)cc1C(Cl)C(Cl)c1ccccc1 (stereo unspecified)
// result 3.76 µM

Measured values drawn from PubChem BioAssay (NCI) for this set.
